Where these numbers come from: ChEMBL document CHEMBL4219043

# assayMethodText: Oral bioavailability in dog at 3 mg/kg by LC-MS/MS analysis
# Format: ADME, organism-based, Canis lupus familiaris
# conditionParameters: in vivo
valueType: bioavailability (%)

Cc1cc(C(=O)N[C@H]2CCCCC/C=C\[C@@H]3C[C@@]3(C(=O)NS(=O)(=O)C3(C)CC3)NC(=O)[C@@H]3C[C@@H](Oc4nc5ccccc5c5ccc(F)cc45)CN3C2=O)no1    140
CC(=O)N(C)[C@@H](CC(C)(C)C)C(=O)N[C@H]1CCCCC/C=C\[C@@H]2C[C@@]2(C(=O)NS(=O)(=O)C2(C)CC2)NC(=O)[C@@H]2C[C@@H](Oc3nc4cc(F)ccc4c4ccccc34)CN2C1=O    76
Cn1ccc(C(=O)N[C@H]2CCCCC/C=C\[C@@H]3C[C@@]3(C(=O)NS(=O)(=O)C3(C)CC3)NC(=O)[C@@H]3C[C@@H](Oc4nc5cc(OC(F)(F)F)ccc5c5ccc(F)cc45)CN3C2=O)n1    81
Cc1cc(C(=O)N[C@H]2CCCCC/C=C\[C@@H]3C[C@@]3(C(=O)NS(=O)(=O)C3CC3)NC(=O)[C@@H]3C[C@@H](Oc4nc5ccccc5nc4C)CN3C2=O)no1    13
Cc1cc(C(=O)N[C@H]2CCCCC/C=C\[C@@H]3C[C@@]3(C(=O)NS(=O)(=O)C3CC3)NC(=O)[C@@H]3C[C@@H](Oc4nc5cc(F)ccc5nc4C)CN3C2=O)no1    123

---

# Test system: Rattus norvegicus
# assayMethodText: Dose normalized AUC in po dosed rat after 24 hrs by LC-MS/MS analysis
# Assay type: ADME, organism-based
# conditionParameters: in vivo
Label yes when AUC/dose is strictly below 0.2 µg·h/mL; otherwise label no.

Cc1cc(C(=O)N[C@H]2CCCCC/C=C\[C@@H]3C[C@@]3(C(=O)NS(=O)(=O)C3CC3)NC(=O)[C@@H]3C[C@@H](Oc4nc5ccccc5nc4C)CN3C2=O)no1    yes
Cc1cc(C(=O)N[C@H]2CCCCC/C=C\[C@@H]3C[C@@]3(C(=O)NS(=O)(=O)C3(C)CC3)NC(=O)[C@@H]3C[C@@H](Oc4nc5ccccc5c5ccc(F)cc45)CN3C2=O)no1    yes
Cn1ccc(C(=O)N[C@H]2CCCCC/C=C\[C@@H]3C[C@@]3(C(=O)NS(=O)(=O)C3(C)CC3)NC(=O)[C@@H]3C[C@@H](Oc4nc5cc(OC(F)(F)F)ccc5c5ccc(F)cc45)CN3C2=O)n1    no
CC(=O)N(C)[C@@H](CC(C)(C)C)C(=O)N[C@H]1CCCCC/C=C\[C@@H]2C[C@@]2(C(=O)NS(=O)(=O)C2(C)CC2)NC(=O)[C@@H]2C[C@@H](Oc3nc4cc(F)ccc4c4ccccc34)CN2C1=O    yes
Cc1cc(C(=O)N[C@H]2CCCCC/C=C\[C@@H]3C[C@@]3(C(=O)NS(=O)(=O)C3CC3)NC(=O)[C@@H]3C[C@@H](Oc4nc5cc(F)ccc5nc4C(F)(F)F)CN3C2=O)no1    yes
Cc1cc(C(=O)N[C@H]2CCCCC/C=C\[C@@H]3C[C@@]3(C(=O)NS(=O)(=O)C3CC3)NC(=O)[C@@H]3C[C@@H](Oc4nc5ccccc5nc4C(F)(F)F)CN3C2=O)no1    no
Cc1cc(C(=O)N[C@H]2CCCCC/C=C\[C@@H]3C[C@@]3(C(=O)NS(=O)(=O)C3(C)CC3)NC(=O)[C@@H]3C[C@@H](Oc4nc5cc(F)ccc5nc4C(F)(F)F)CN3C2=O)no1    yes
